- target desc: ACC2 (acetyl-CoA carboxylase 2) (Homo sapiens)
assay metric: IC50

Below are worked cases with known answers.
>>> endpoint_result("CCc1cc(-c2ccccc2)cc(Cl)c1C1C(=O)N2CCOCCN2C1=O [Example C-1, reference compound]")
"> 20 µM"
>>> endpoint_result("Cc1ccc(-c2ccc(Cl)cc2)cc1C1=C(O)C(C)(C)C(C)(C)OC1=O")
"> 20 µM"
>>> endpoint_result("Cc1ccc(-c2ccc(Cl)cc2)cc1C1=C(O)C2(CCOCC2)OC1=O")
"> 20 µM"

Param request: IC50 | system ACC2 (acetyl-CoA carboxylase 2) (Homo sapiens) | item Cc1ccc(-c2ccc(F)cc2)cc1C1=C(O)C2(CCCCC2)OC1=O
> 20 µM

----------
Measured IC50 of individual entries
- target desc: recombinant human ACC1 (acetyl-CoA carboxylase 1) (Homo sapiens)
- Construct: NM_198834, amino acids 39—end; FLAG (C)
- test description: Human ACC1 enzyme assay (HTRF ADP detection)
- measurement setup: 50 μM ATP, 20 μM acetyl-CoA, 15 min pre-incubation, 20 min at 22° C.; read-out: ACC 1 IC50
Write the value in nM as a bare number.

The examples below pair each entry with its known result.
>>> endpoint_result("O=C1NC2(CCC3(CC2)OCCCO3)C(O)=C1c1cc(-c2ccc(Cl)cc2)ccc1Cl [Example 1-58]")
362
>>> endpoint_result("Cc1ccc(-c2ccc(Cl)cc2)cc1C1C(=O)N2CCOCCN2C1=O [Example 8-6]")
1380
>>> endpoint_result("Cc1ccc(-c2ccc(Cl)cc2)cc1C1=C(O)CC(C)(C)CC1=O [Example 7-5]")
610
>>> endpoint_result("Cc1ccc(-c2ccc(Cl)cc2)cc1C1=C(O)CN(C2CCCCC2)C1=O [Example 1-22]")
969
>>> endpoint_result("COC1CCC2(CC1)NC(=O)C(c1c(C)cc(C)c(-c3ccc(Cl)cc3)c1C)=C2O (centres unmarked) [Example 1-9]")
16600

Could you now look at the following compound, please?
Output IC50 of Cc1ccc(-c2ccc(Cl)cc2)c(C)c1C1=C(O)C2(CCCC2)OC1=O [Example 2-2]
260

----------
- target desc: recombinant human ACC1 (acetyl-CoA carboxylase 1) (Homo sapiens, UniProt Q13085)
- Construct: NM_198834, amino acids 39—end; FLAG (C)
- test description: Human ACC1 enzyme assay (HTRF ADP detection)
- measurement setup: 50 μM ATP, 20 μM acetyl-CoA, 15 min pre-incubation, 20 min at 22° C.; read-out: ACC 1 IC50
assay metric: IC50

Past entries and their recorded results:
>>> endpoint_result("Cc1ccc(-c2ccc(Cl)cc2)cc1C1C(=O)N2CC(C)(F)CN2C1=O")
"0.587 µM"
>>> endpoint_result("CCc1cc(C)cc(Br)c1C1=C(O)C2(CCCCC2)OC1=O [Example C-4, reference compound]")
"5.4 µM"
>>> endpoint_result("Cc1ccc(-c2ccc(Cl)cc2)cc1C1=C(O)CC(C)(C)N(C)C1=O")
"5.38 µM"
>>> endpoint_result("COC1CCC2(CC1)NC(=O)C(c1cc(-c3ccc(Cl)cc3)c(C)cc1C)=C2O (centres unmarked)")
"1.7 µM"
>>> endpoint_result("CCC1CCC2(CC1)CC(=O)C(c1cc(-c3ccc(Cl)cc3)ccc1C)=C2O (centres unmarked)")
"0.754 µM"

Report IC50 for Cc1ccc(-c2ccc(C(F)(F)F)cc2)cc1-c1c(O)c2ccc(Cl)cc2[nH]c1=O
1.09 µM

Kindly indicate its recorded IC50. Item: Cc1ccc(-c2ccc(Cl)cc2)cc1C1=C(O)[C@]2(CC[C@H](C)CC2)NC1=O
0.201 µM

Recall and state the measured IC50 for Cc1ccc(-c2ccc(Cl)cc2)c(C)c1C1=C(O)C2(CCC3(CC2)OCC(C)O3)NC1=O (centres unmarked) .
0.69 µM

Tell me measured IC50 for O=C1C(c2cc(-c3ccc(Cl)cc3)ccc2Cl)C(=O)N2CCCCN12 please.
0.891 µM

Using known records, supply IC50 for O=C1C(c2cc(-c3ccc(Cl)c(Cl)c3)ccc2Cl)C(=O)N2CCOCCN12
1.13 µM

Read off the recorded IC50 for O=C1OC2(CCCC2)C(O)=C1c1cc(-c2cc(F)c(F)c(F)c2)ccc1Cl
0.997 µM

State its IC50: COC1CCC2(CC1)SC(=O)C(c1cc(-c3ccc(Cl)cc3)ccc1C)=C2O (centres unmarked)
0.853 µM

Give the reported value of IC50 for this record: Cc1ccc(-c2ccc(Cl)cc2)cc1C1=C(O)C(C)N(C(C)C)C1=O (centres unmarked)
0.874 µM

Look up and state reported IC50 for Cc1ccc(-c2ccc(Cl)cc2)cc1C1=C(O)[C@@]2(CC[C@H](OCC(C)C)C2)NC1=O (relative stereo)
0.24 µM

----------
Quick reference for pIC50 among some molecules
- target desc: recombinant human ACC1 (acetyl-CoA carboxylase 1) (Homo sapiens, UniProt Q13085)
- Construct: NM_198834, amino acids 39—end; FLAG (C)
- test description: Human ACC1 enzyme assay (HTRF ADP detection);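 further: ADP by-product quantified by competitive HTRF immunoassay with europium cryptate anti-ADP antibody and d2-labelled ADP, read after 1 h binding at 22 °C, enzyme near 2.5 ng/µl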
- measurement setup: 50 μM ATP, 20 μM acetyl-CoA, 15 min pre-incubation, 20 min at 22° C.; read-out: ACC 1 IC50
pIC50 is a log-scale quantity: -log10 of the concentration expressed in molar.

>>> endpoint_result("Cc1ccc(-c2ccc(F)c(F)c2)cc1C1=C(O)C2(CCC3(CCCO3)CC2)NC1=O (centres unmarked) [Example 1-35]")
6.53
>>> endpoint_result("O=C1NC2(CCOCC2)C(O)=C1c1cc(-c2ccc(F)cc2)ccc1Cl [Example 1-41]")
6.12
>>> endpoint_result("CCOC1CCCC2(C1)NC(=O)C(c1c(C)ccc(-c3ccc(Cl)cc3)c1C)=C2O (centres unmarked) [Example 1-73]")
6.04
>>> endpoint_result("COC1CCC2(CC1)NC(=O)C(c1cc(-c3ccc(Cl)cc3)ccc1Cl)=C2O (centres unmarked) [Example 1-11]")
6.62

Give measured pIC50 for CN1C(=O)C(c2cc(-c3ccc(Cl)cc3)ccc2Cl)C(=O)N1C [Example 8-15] (recombinant human ACC1 (acetyl-CoA carboxylase 1) (Homo sapiens, UniProt Q13085)).
5.71

Provide pIC50, system recombinant human ACC1 (acetyl-CoA carboxylase 1) (Homo sapiens, UniProt Q13085), entry Cc1ccc(-c2ccc(F)c(F)c2)cc1C1=C(O)C2(CCCC2)OC1=O [Example 2-22]
6.08

Identify measured pIC50 obtained with recombinant human ACC1 (acetyl-CoA carboxylase 1) (Homo sapiens, UniProt Q13085) for O=C1OC2(CCCCC2)C(O)=C1c1cc(-c2ccc(F)c(F)c2)ccc1Cl [Example 2-25] .
6.35

Provide measured pIC50 on recombinant human ACC1 (acetyl-CoA carboxylase 1) (Homo sapiens, UniProt Q13085) for COCC1CCC2(CC1)OC(=O)C(c1cc(-c3ccc(Cl)cc3)ccc1C)=C2O (centres unmarked) [Example 2-20] please.
6.86

Report pIC50 on recombinant human ACC1 (acetyl-CoA carboxylase 1) (Homo sapiens, UniProt Q13085) for this entry: CC1(F)CN2C(=O)C(c3cc(-c4ccc(Cl)cc4)ccc3Cl)C(=O)N2C1 [Example 8-13]
6.19

Lab note: record pIC50 of COC1CCCC2(C1)OC(=O)C(c1cc(-c3ccc(Cl)cc3)ccc1C)=C2O (centres unmarked) [Example 2-14] tested on recombinant human ACC1 (acetyl-CoA carboxylase 1) (Homo sapiens, UniProt Q13085).
6.25

Write pIC50 of Cc1ccc(-c2ccc(Cl)cc2)cc1C1=C(O)C2(Cc3ccccc3C2)NC1=O [Example 1-25] ; system used: recombinant human ACC1 (acetyl-CoA carboxylase 1) (Homo sapiens, UniProt Q13085)
6.31

Recall the reported pIC50 of COC1CCCC2(C1)OC(=O)C(c1cc(-c3ccc(Cl)cc3)c(C)cc1C)=C2O (centres unmarked) [Example 2-11] on recombinant human ACC1 (acetyl-CoA carboxylase 1) (Homo sapiens, UniProt Q13085) and write it down.
6.18

Please respond with reported pIC50 (system recombinant human ACC1 (acetyl-CoA carboxylase 1) (Homo sapiens, UniProt Q13085)) for Cc1ccc(-c2ccc(Cl)cc2)cc1C1=C(O)C2(CCCCC2)SC1=O [Example 3-2] .
7.01

Please report pIC50 with recombinant human ACC1 (acetyl-CoA carboxylase 1) (Homo sapiens, UniProt Q13085) for item Cc1ccc(-c2ccc(Cl)cc2)c(C)c1C1=C(O)C2(CCCCC2)OC1=O [Example 2-4] .
6.72

----------
Catalogue of IC50 values
- target desc: ACC2 (acetyl-CoA carboxylase 2) (Homo sapiens, UniProt O00763)
- Sequence (O00763 39-2458 limits assumed): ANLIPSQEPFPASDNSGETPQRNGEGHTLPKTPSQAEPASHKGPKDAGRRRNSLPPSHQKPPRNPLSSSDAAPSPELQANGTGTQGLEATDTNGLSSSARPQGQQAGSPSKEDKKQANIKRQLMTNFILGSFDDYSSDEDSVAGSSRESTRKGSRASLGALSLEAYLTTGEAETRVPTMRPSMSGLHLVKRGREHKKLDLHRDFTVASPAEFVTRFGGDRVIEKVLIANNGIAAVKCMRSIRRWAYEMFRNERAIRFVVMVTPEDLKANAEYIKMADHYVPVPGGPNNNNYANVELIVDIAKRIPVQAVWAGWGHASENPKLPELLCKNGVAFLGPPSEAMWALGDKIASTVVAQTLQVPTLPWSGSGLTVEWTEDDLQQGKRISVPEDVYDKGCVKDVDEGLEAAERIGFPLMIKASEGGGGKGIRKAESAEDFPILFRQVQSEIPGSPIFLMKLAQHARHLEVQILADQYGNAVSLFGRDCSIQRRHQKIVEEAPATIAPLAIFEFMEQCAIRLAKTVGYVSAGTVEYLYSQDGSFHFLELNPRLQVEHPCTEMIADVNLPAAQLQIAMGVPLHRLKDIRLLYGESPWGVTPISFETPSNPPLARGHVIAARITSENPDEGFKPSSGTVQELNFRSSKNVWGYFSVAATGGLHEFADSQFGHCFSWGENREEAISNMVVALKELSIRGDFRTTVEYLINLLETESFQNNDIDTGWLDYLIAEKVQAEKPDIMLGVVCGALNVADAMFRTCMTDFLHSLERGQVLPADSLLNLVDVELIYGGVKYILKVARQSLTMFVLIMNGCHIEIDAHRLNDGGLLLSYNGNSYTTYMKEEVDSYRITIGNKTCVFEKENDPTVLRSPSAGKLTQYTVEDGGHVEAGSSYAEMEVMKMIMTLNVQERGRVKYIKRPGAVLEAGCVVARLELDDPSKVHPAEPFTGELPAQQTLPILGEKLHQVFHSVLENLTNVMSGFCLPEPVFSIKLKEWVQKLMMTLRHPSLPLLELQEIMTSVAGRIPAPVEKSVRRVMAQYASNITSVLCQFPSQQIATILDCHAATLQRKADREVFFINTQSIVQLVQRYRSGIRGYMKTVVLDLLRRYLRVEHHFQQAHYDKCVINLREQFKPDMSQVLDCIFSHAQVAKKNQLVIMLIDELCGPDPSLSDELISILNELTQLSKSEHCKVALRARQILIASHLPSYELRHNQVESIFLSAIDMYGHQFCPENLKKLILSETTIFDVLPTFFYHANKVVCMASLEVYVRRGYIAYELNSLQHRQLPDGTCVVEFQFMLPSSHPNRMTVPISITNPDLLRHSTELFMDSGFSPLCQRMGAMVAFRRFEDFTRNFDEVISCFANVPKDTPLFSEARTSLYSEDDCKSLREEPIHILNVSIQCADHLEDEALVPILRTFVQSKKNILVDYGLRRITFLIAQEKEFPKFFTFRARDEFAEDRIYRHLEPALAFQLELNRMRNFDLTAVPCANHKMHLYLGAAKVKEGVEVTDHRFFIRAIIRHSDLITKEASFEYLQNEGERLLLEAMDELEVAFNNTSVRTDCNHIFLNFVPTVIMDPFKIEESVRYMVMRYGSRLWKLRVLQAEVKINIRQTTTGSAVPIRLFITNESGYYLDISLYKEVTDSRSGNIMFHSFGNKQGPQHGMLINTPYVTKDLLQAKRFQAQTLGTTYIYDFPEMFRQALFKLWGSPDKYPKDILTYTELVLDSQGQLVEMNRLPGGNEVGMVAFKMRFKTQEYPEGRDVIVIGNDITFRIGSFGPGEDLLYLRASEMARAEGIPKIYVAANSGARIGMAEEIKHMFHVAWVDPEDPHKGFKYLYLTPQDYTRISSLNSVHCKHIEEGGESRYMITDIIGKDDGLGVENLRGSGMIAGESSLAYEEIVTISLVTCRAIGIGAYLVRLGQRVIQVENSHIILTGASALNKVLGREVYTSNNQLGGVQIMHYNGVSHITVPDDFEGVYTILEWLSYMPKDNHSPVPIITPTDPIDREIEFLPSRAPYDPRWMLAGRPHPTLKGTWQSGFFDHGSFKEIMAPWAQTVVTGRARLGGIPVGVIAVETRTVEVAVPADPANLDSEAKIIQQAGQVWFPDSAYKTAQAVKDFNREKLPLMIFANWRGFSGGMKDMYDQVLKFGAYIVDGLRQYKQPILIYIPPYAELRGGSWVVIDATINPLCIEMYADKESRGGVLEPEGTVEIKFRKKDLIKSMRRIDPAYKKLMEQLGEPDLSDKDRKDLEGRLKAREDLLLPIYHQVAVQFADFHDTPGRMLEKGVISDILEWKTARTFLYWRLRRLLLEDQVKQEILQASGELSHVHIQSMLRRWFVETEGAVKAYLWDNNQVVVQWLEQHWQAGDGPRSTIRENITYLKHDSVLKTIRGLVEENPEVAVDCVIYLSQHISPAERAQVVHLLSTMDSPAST
Write the answer as a number in µM, unit excluded.

Below: 2 molecules and their reported IC50.
>>> endpoint_result("Cc1cc(C)c(-c2ccc(Cl)cc2)cc1C1=C(O)C(C)OC1=O (centres unmarked) [Example 2-45]")
17
>>> endpoint_result("O=C1N[C@]2(CC[C@@H](OCC(F)(F)F)CC2)C(O)=C1c1cc(-c2ccc(Cl)cc2)ccc1Cl [Example 1-29]")
1.9

State IC50 (ACC2 (acetyl-CoA carboxylase 2) (Homo sapiens, UniProt O00763)) of Cc1ccc(-c2ccc(Cl)cc2)cc1C1=C(O)C2(CCC3(CC2)OC(C)C(C)O3)NC1=O (centres unmarked) [Example 1-64] .
16.4

Determine reported IC50 for Cc1ccc(-c2ccc(Cl)cc2)cc1C1=C(O)CN(C(C)C)C1=O [Example 1-17] ; test system: ACC2 (acetyl-CoA carboxylase 2) (Homo sapiens, UniProt O00763).
4.02

Fetch value of IC50 on ACC2 (acetyl-CoA carboxylase 2) (Homo sapiens, UniProt O00763) for COCC1CCC2(CC1)NC(=O)C(c1c(C)ccc(-c3ccc(Cl)cc3)c1C)=C2O (centres unmarked) [Example 1-53] .
0.214

Quote ACC2 (acetyl-CoA carboxylase 2) (Homo sapiens, UniProt O00763) IC50 for entry COC1CCCC2(C1)OC(=O)C(c1cc(-c3ccc(Cl)cc3)c(C)cc1C)=C2O (centres unmarked) [Example 2-11] .
1.55

Name the recorded IC50 of Cc1ccc(-c2ccc(Cl)cc2)cc1C1=C(O)C2(CCCCCC2)CC1=O [Example 6-7] , assay system ACC2 (acetyl-CoA carboxylase 2) (Homo sapiens, UniProt O00763).
0.654
